Entry source: paper PMC11387744

# measuredTarget: KDM2B^F-box-LRRs/SKP1 dimer (UniProt Q8NHM5 1059-1336; P63208 2-163)
# Sequence (Q8NHM5 1059-1336, chain 1 of 2): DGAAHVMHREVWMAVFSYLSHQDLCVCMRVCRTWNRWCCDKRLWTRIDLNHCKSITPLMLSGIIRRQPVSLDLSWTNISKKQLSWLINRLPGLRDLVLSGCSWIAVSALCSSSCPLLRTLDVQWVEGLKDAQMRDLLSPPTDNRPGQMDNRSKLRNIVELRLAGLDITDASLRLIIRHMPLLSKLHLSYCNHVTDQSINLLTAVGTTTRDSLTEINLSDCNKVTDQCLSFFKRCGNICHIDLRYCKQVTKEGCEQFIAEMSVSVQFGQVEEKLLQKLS
# Sequence (P63208 2-163, chain 2 of 2): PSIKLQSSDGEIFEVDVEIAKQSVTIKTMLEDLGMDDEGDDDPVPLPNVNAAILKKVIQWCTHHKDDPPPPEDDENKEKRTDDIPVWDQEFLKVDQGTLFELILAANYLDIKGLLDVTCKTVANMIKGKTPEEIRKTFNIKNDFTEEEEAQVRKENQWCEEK
# assayComment: ITC
quantityKind: Kd
Please answer using the number first and the unit second.

Query: Answer with the recorded Kd for the binder listed here: BCOR^N1624/PCGF1^RAWUL dimer (complex) chain 1: EDQDDDDDAYSDVFEFEFSETPLLPCYNIQVSVAQGPRNWLLLSDVLKKLKMSSRIFRCNFPNVEIVTIAEAEFYRQVSASLLFSCSKDLEAFNPESKELLDLVEFTNEIQTLLGSSVEWLHPSDLASDNYW chain 2: LPFSSFDHSKAHYYRYDEQLNLCLERLSSGKDKNKSVLQNKYVRCSVRAEVRHLRRVLCHRLMLNPQHVQLLFDNEVLPDHMTMKQIWLSRWFGKPSPLLLQYSVK
Result: 5930 nM

Query: Answer with the recorded Kd of BCOR^N1591/PCGF1^RAWUL dimer (complex) chain 1: DDDASGTWDFYGSSVCEPDDESGYDVLANPPGPEDQDDDDDAYSDVFEFEFSETPLLPCYNIQVSVAQGPRNWLLLSDVLKKLKMSSRIFRCNFPNVEIVTIAEAEFYRQVSASLLFSCSKDLEAFNPESKELLDLVEFTNEIQTLLGSSVEWLHPSDLASDNYW chain 2: LPFSSFDHSKAHYYRYDEQLNLCLERLSSGKDKNKSVLQNKYVRCSVRAEVRHLRRVLCHRLMLNPQHVQLLFDNEVLPDHMTMKQIWLSRWFGKPSPLLLQYSVK only.
Result: 240 nM

Query: Name the recorded Kd of the binder listed here: BCOR^N1612/PCGF1^RAWUL dimer (complex) chain 1: SGYDVLANPPGPEDQDDDDDAYSDVFEFEFSETPLLPCYNIQVSVAQGPRNWLLLSDVLKKLKMSSRIFRCNFPNVEIVTIAEAEFYRQVSASLLFSCSKDLEAFNPESKELLDLVEFTNEIQTLLGSSVEWLHPSDLASDNYW chain 2: LPFSSFDHSKAHYYRYDEQLNLCLERLSSGKDKNKSVLQNKYVRCSVRAEVRHLRRVLCHRLMLNPQHVQLLFDNEVLPDHMTMKQIWLSRWFGKPSPLLLQYSVK
Result: 850 nM

Query: Look up Kd of BCOR^N1607/PCGF1^RAWUL dimer (complex) chain 1: EPDDESGYDVLANPPGPEDQDDDDDAYSDVFEFEFSETPLLPCYNIQVSVAQGPRNWLLLSDVLKKLKMSSRIFRCNFPNVEIVTIAEAEFYRQVSASLLFSCSKDLEAFNPESKELLDLVEFTNEIQTLLGSSVEWLHPSDLASDNYW chain 2: LPFSSFDHSKAHYYRYDEQLNLCLERLSSGKDKNKSVLQNKYVRCSVRAEVRHLRRVLCHRLMLNPQHVQLLFDNEVLPDHMTMKQIWLSRWFGKPSPLLLQYSVK and report it.
Result: 270 nM
